# ASSAY TARGET: KRas G12R (Homo sapiens, UniProt P01116, G12R);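 note: TR-FRET displacement assay of compound binding to KRas, read after one hour at room temperature, potency from a four-parameter fit of percent-of-control values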
# Sequence (P01116 1-169 isoform P01116-2 G12R): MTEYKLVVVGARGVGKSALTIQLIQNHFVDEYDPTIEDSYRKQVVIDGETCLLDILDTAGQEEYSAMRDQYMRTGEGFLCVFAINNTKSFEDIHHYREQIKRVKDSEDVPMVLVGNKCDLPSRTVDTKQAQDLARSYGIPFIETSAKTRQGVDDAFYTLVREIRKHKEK
# METHOD SUMMARY: biochemical
pIC50: −log10 of the molar value.
QUANTITY KIND: pIC50

>>> value_measured("CCc1c(F)ccc2cc(O)cc(-c3ncc4c(N5C[C@H]6C[C@@H](C5)[C@H](CO)[C@H]6O)nc(OC[C@@]56CCCN5C[C@H](F)C6)nc4c3F)c12")
6.73

a. CCc1c(F)ccc2cc(O)cc(-c3ncc4c(NCC5CNC(=O)N5)nc(OC[C@@]56CCCN5C[C@H](F)C6)nc4c3F)c12 (stereo partly drawn)
b. O=CNC1CCN(c2nc(OCC34CCCN3CCC4)nc3c(F)c(-c4cccc5cccc(F)c45)ncc23)CC1
c. Fc1c(-c2cccc3cccc(F)c23)ncc2c(NCc3nnc4cccnn34)nc(OCC34CCCN3CCC4)nc12
d. CCc1c(F)ccc2cc(O)cc(-c3ncc4c(NCCC5NC(=O)NC5=O)nc(OC[C@@]56CCCN5C[C@H](F)C6)nc4c3F)c12 (stereo partly drawn)
Inquiry: Given 4 compounds, produce a descending ranking by pIC50. List the labels according to the requested ordering.
Reply text: a, d, b, c
(a: 8.30, d: 8.10, b: 5.51, c: 4.90)

1. CCc1c(F)ccc2cc(O)cc(-c3ncc4c(N5CCCC6(CC(=O)N6)C5)nc(OCC5(CN(C)C)CC5)nc4c3F)c12 (stereo not drawn)
2. CC1(O)CCCN(c2nc(OCC34CCCN3CCC4)nc3c(F)c(-c4cc(O)cc(Cl)c4C4CC4)ncc23)C1 (stereo not drawn)
3. Cc1cc2sc(N)nc2c(-c2ncc3c(N4CCCC(C)(O)C4)nc(OCC45CCCN4CCC5)nc3c2F)c1C (stereo not drawn)
4. CC1(O)COCCN(c2nc(OCC34CCCN3CCC4)nc3c(F)c(-c4cccc5cccc(F)c45)ncc23)C1 (stereo not drawn)
Inquiry: Rank ascending by pIC50. List the labels according to the requested ordering.
Reply text: 3, 4, 2, 1

I. CCc1c(F)ccc2cc(O)cc(-c3ncc4c(N5CCC6C(=O)NC(=O)C6C5)nc(OC[C@@]56CCCN5C[C@H](F)C6)nc4c3F)c12 (stereo partly drawn)
II. Cc1cccc2cccc(-c3ncc4c(N5CCCC6(CNC(=O)N6)C5)nc(OCC56CCCN5CCC6)nc4c3F)c12 (stereo not drawn)
III. CCc1c(F)ccc2cc(O)cc(-c3ncc4c(N5CC[C@H](C)[C@@H](O)C5)nc(OC[C@@]56CCCN5C[C@H](F)C6)nc4c3F)c12
IV. Cc1cc2[nH]ncc2c(-c2ncc3c(N4CCCC(C)(O)C4)nc(OCC45CCCN4CCC5)nc3c2F)c1C1CC1 (stereo not drawn)
V. CN1CCC[C@H]1COc1nc(N2CCOCC2)c2cnc(-c3cc(O)cc4ccccc34)c(F)c2n1
Inquiry: Given 5 compounds, produce a descending ranking by pIC50. List the labels according to the requested ordering.
Reply text: I, III, IV, II, V

---

# Test system: pERK in MKN1 cells
# METHOD SUMMARY: Inhibition of KRas phosphorylation of ERK (Cisbio HTRF pERK assay)
# CONDITION DETAILS: Homo sapiens, MKN-1, 3 h, read-out: Inhibition (HTRF IC50) of KRas-mediated Phosphorylation of ERK, MKN1
pIC50: −log10 of the molar value.
QUANTITY KIND: pIC50

Worked examples follow.
>>> value_measured("CCc1c(F)ccc2cc(O)cc(-c3ncc4c(N5CCCC6(CNS(=O)(=O)N6)C5)nc(OC[C@@]56CCCN5C[C@H](F)C6)nc4c3F)c12 (stereo partly shown)")
8.10
>>> value_measured("CCc1c(F)ccc2cc(O)cc(-c3ncc4c(N5CCOCC(OC)C5)nc(OC[C@@]56CCCN5C[C@H](F)C6)nc4c3F)c12 (stereo partly shown)")
7.89
>>> value_measured("CCc1c(F)ccc2cc(O)cc(-c3ncc4c(N5CCC[C@@](C)(O)C5)nc(OC[C@@]56CCCN5[C@@H](COC(=O)N(C)C)CC6)nc4c3F)c12")
7.85
>>> value_measured("CCc1c(F)ccc2cc(O)cc(-c3ncc4c(N5C[C@@H](CO)C[C@](C)(O)C5)nc(OC[C@@]56CCCN5C[C@H](F)C6)nc4c3F)c12 (mixture of isomers)")
7.85
>>> value_measured("C#Cc1c(F)ccc2cc(O)cc(-c3ncc4c(N5CCOC[C@@](C)(O)C5)nc(OC[C@@]56CCCN5C[C@H](F)C6)nc4c3F)c12")
7.82

1. CCc1c(F)ccc2cc(O)cc(-c3ncc4c(N5CCC[C@@](C)(O)C5)nc(OC[C@]56CCCN5[C@@H](COC(=O)N(C)C)CC6)nc4c3F)c12
2. CCc1c(F)ccc2cc(O)cc(-c3ncc4c(N5CCCC6(CCSC6)C5)nc(OC[C@@]56CCCN5C[C@H](F)C6)nc4c3F)c12 (stereo partly shown)
3. CCc1c(F)ccc2cc(O)cc(-c3ncc4c(NCC5CCC(=O)N5)nc(OC[C@@]56CCCN5C[C@H](F)C6)nc4c3F)c12 (stereo partly shown)
4. CCc1c(F)ccc2cc(O)cc(-c3ncc4c(N5CCCC(O)(C(F)(F)F)C5)nc(OC[C@@]56CCCN5C[C@H](F)C6)nc4c3F)c12 (stereo partly shown)
5. Oc1cc(-c2ncc3c(N4CCC[C@]5(C4)C[C@@H](O)C5)nc(OC[C@@]45CCCN4C[C@H](F)C5)nc3c2F)c2c(F)c(F)ccc2c1 (single isomer, unassigned)
Inquiry: Given 5 compounds, produce a descending ranking by pIC50. List the labels according to the requested ordering.
Reply text: 4, 5, 2, 1, 3
(4: 8.70, 5: 8.05, 2: 7.85, 1: 7.43, 3: 6.41)

a. CCc1c(F)ccc2cc(O)cc(-c3ncc4c(N5CCCn6nc(NC)cc6C5)nc(OC[C@@]56CCCN5C[C@H](F)C6)nc4c3F)c12
b. CCc1c(F)ccc2cc(O)cc(-c3ncc4c(NCc5cc(C(N)=O)nn5C)nc(OC[C@@]56CCCN5C[C@H](F)C6)nc4c3F)c12
c. CCc1c(F)ccc2cc(O)cc(-c3ncc4c(N5CC[C@H](F)[C@@H](O)C5)nc(OC[C@@]56CCCN5C[C@H](F)C6)nc4c3F)c12
Inquiry: Rank ascending by pIC50. List the labels according to the requested ordering.
Reply text: b, a, c

Numbers sourced from patent US12398154B2.
